System: HEK-293T
experimental details: Multiplex assay against HEK293T
Type: toxicity, cell-based
applied conditions: human, 12 h, 1 µM, compound concentration 1 uM, replicate 1
The entries below come with measured Population Membrane Permeable-Phenotype (%) values attached.
experimental endpoint: Population Membrane Permeable-Phenotype (%)

- compound: "C=CC(=O)Nc1cc(-n2c(=O)ccc3cnc4ccc(-c5ccc(NS(C)(=O)=O)cc5)cc4c32)ccc1C"
  recorded value: 0
- compound: "Cc1ccc(NC(=O)Nc2cc(C(F)(F)F)ccc2F)cc1Nc1ccc2c(c1)NC(=O)/C2=C\\c1ccc[nH]1"
  recorded value: 59
- compound: "CC[C@@H]1C(=O)N(C)c2cnc(Nc3ccc(C(=O)NC4CCN(C)CC4)cc3OC)nc2N1C1CCCC1 [BI-2536]"
  recorded value: 12
- compound: "CCOC(=O)CCNc1cc(N2CCc3ccccc3CC2)nc(-c2ccccn2)n1"
  recorded value: 4
- compound: "Cc1c(P(=S)(c2ccccc2)c2ccccc2)n2ccccc2[n+]1C/C=C/c1ccccc1.[Br-]"
  recorded value: 6
- compound: "Cc1ccc(S(=O)(=O)NC2c3ccccc3Oc3ccccc32)cc1"
  recorded value: 2
- compound: "CCCCN(CC)c1nc(C)nc2c1c(C)cn2-c1c(C)cc(C)cc1C.Cl"
  recorded value: 5

The reported numbers originate from ChEMBL document CHEMBL4689842.
